Sourced from patent US20060100431A1

# TGT: UniProt:P25779
# RUN DESCRIPTION: Trypanosoma cruzi cruzipain peptidase activity assay (Ki)
# Assay type: biochemical
# MEASUREMENT CONTEXT: read-out: Ki, inhibitors of cruzain and cruzipains
pKi: −log10 of the molar value.

| SMILES STRING | pKi |
| --- | --- |
| Cc1ccc(C(=O)N[C@@H](CC(C)C)C(=O)N2CC[C@@H]3[C@H]2C(=O)CN3C(=O)c2ccccc2)cc1 | > 5.30 |
| CC(C)C[C@H](NC(=O)c1ccc(N(C)C)cc1)C(=O)N1CC[C@@H]2[C@H]1C(=O)CN2C(=O)N1CCCC1 | > 5.30 |
| CC[C@H](NC(C)=O)C(=O)N1CC(=O)[C@@H]2[C@H]1CCN2C(=O)[C@H](CC(C)C)NC(=O)c1ccc(N(C)C)cc1 | > 5.30 |

----------
Recorded measurements of Ki, one per entry
# TGT: human cathepsin L (Homo sapiens, UniProt P07711)
# Construct: purchased CN Biosciences
# Sequence (P07711 114-333): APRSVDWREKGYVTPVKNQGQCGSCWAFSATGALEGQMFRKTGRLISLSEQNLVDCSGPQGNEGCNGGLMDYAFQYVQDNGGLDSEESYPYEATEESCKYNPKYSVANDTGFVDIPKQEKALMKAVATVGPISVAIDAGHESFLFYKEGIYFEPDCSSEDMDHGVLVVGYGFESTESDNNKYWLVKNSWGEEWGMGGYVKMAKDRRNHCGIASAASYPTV
# RUN DESCRIPTION: Cathepsin L peptidase activity assay (Ki)
# Type: biochemical
# MEASUREMENT CONTEXT: read-out: Ki, inhibitors of cathepsin L
MEASURED ENDPOINT: Ki

| SMILES STRING | VALUE OBSERVED |
| --- | --- |
| CC(C)C[C@H](NC(=O)c1cccc(CN)c1)C(=O)N1CC[C@@H]2[C@H]1C(=O)CN2C(=O)c1ccccc1S(C)(=O)=O | < 5 µM |
| CC[C@H](NC(C)=O)C(=O)N1CC(=O)[C@@H]2[C@H]1CCN2C(=O)[C@H](CC(C)C)NC(=O)c1ccc(N(C)C)cc1 | < 5 µM |
| O=C(N[C@@H](CC1CCCCC1)C(=O)N1CC[C@@H]2[C@H]1C(=O)CN2C(=O)c1ccccc1)c1ccsc1 | < 5 µM |

----------
# TGT: CPB2.8ΔCTE (Leishmania mexicana, UniProt P36400)
# Construct: Wild-type recombinant CPB without the C-terminal extention (i.e. CPB2.8ΔCTE); Dr. Jeremy Mottram (Wellcome Centre for Molecular Parasitology, University of Glasgow)
# Sequence (P36400 126-343, stated change not applied): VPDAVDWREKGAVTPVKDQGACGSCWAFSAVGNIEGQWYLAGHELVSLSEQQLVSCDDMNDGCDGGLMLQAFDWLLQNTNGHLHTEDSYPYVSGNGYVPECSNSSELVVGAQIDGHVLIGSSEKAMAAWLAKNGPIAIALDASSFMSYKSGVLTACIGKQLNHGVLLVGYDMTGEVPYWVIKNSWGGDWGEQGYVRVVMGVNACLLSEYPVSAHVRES
# RUN DESCRIPTION: Leishmania mexicana cysteine protease B (CPB) peptidase activity assay (Ki)
# Type: biochemical
# MEASUREMENT CONTEXT: Ki CPB, Table 5
pKi: −log10 of the molar value.

| SMILES STRING | pKi |
| --- | --- |
| CC(C)(C)c1ccc(C(=O)N[C@@H](Cc2ccc(O)cc2)C(=O)N2CC[C@@H]3[C@H]2C(=O)CN3C(=O)c2ccccc2)cc1 | < 5.30 |
| O=C(N[C@@H](CC1CCCCC1)C(=O)N1CC[C@@H]2[C@H]1C(=O)CN2C(=O)c1ccccc1)c1ccsc1 | < 5.30 |
| O=C(N[C@@H](Cc1ccc(O)cc1)C(=O)N1CC[C@@H]2[C@H]1C(=O)CN2C(=O)c1ccccc1)c1cccc2ccccc12 | < 5.30 |
| CC(C)C[C@H](NC(=O)c1ccc(-c2cccs2)cc1)C(=O)N1CC[C@@H]2[C@H]1C(=O)CN2C(=O)c1ccccc1 | < 6.70 |

----------
# TGT: Wild-type cruzipain (Trypanosoma cruzi, UniProt P25779)
# Sequence (P25779 whole entry): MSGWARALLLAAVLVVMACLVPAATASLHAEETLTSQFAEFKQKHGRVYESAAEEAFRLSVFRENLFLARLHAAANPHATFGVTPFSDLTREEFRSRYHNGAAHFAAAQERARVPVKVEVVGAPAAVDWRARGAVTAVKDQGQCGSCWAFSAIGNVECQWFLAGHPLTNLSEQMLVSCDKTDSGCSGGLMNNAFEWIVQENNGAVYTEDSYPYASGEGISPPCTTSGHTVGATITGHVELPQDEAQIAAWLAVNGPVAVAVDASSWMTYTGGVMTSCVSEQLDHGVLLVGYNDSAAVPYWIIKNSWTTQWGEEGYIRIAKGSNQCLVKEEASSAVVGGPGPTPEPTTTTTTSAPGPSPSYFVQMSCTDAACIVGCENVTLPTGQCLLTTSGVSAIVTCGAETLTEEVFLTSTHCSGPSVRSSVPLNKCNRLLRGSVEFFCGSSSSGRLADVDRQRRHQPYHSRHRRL
# RUN DESCRIPTION: Trypanosoma cruzi cruzipain peptidase activity assay (Ki)
# Format: biochemical
# MEASUREMENT CONTEXT: read-out: Ki, inhibitors of cruzain and cruzipains
Reported Ki values are given for each entry in this list.
MEASURED ENDPOINT: Ki

| SMILES STRING | TGT | VALUE OBSERVED |
| --- | --- | --- |
| CC(C)C[C@H](NC(=O)c1ccc(N2CCNCC2)cc1)C(=O)N1CC[C@@H]2[C@H]1C(=O)CN2C(=O)c1ccccc1 | Wild-type cruzipain (Trypanosoma cruzi, UniProt P25779) | < 5 µM |
| CC(C)C[C@H](NC(=O)c1ccc(N(C)C)cc1)C(=O)N1CC[C@@H]2[C@H]1C(=O)CN2C(=O)c1ccc2c(c1)OCO2 | Wild-type cruzipain (Trypanosoma cruzi, UniProt P25779) | < 5 µM |
| CC(C)C[C@H](NC(=O)c1ccc(N(C)C)cc1)C(=O)N1CC[C@@H]2[C@H]1C(=O)CN2C(=O)[C@H](C)NC(=O)OCc1ccccc1 | Wild-type cruzipain (Trypanosoma cruzi, UniProt P25779) | < 5 µM |
